- Test system: P. falciparum 3D7
- measurement-description: DAPI stain fluorescent high content imaging assay, P. falciparum 3D7 (confirmatory screen, Avery)
- stated-conditions: Plasmodium falciparum, 3D7, read-out: EC50_nM
property-label: pEC50
Scale for pEC50: -log10 of concentration given in mol/L; no unit attached.

Examples with answers:
>  <molecule>
COc1ccc(C(=O)NC(c2ccccc2Cl)c2cc(Cl)c3cccnc3c2O)cc1 (stereo not drawn)

>  <property-label>
pEC50

>  <endpoint-result>
6.08

$$$$
>  <molecule>
CC1=C(CC(=O)c2cccc([N+](=O)[O-])c2)C(=O)c2ccccc2C1=O

>  <property-label>
pEC50

>  <endpoint-result>
6.42

$$$$
>  <molecule>
O=C(NCc1ccco1)C1CCN(S(=O)(=O)c2ccc(Cl)cc2)CC1

>  <property-label>
pEC50

>  <endpoint-result>
6.05

$$$$
>  <molecule>
CCOC(=O)c1cnc2c(C)cccc2c1Nc1ccc(C(C)=O)cc1

>  <property-label>
pEC50

>  <endpoint-result>
6.50

$$$$
>  <molecule>
COc1cc(C(=O)ON=C(N)Cc2cccc3ccccc23)cc(OC)c1OC

>  <property-label>
pEC50

>  <endpoint-result>
6.11

$$$$
>  <molecule>
COc1ccc(CNC(=O)c2cc3c(=O)n4ccccc4nc3n(CCc3ccccc3)c2=N)cc1

>  <property-label>
pEC50

>  <endpoint-result>
5.97

$$$$
>  <molecule>
O=C1C2=C(Nc3ccccc3SC2c2ccccc2)c2ccccc21 (stereo not drawn)

>  <property-label>
pEC50

>  <endpoint-result>
6.05

$$$$
>  <molecule>
OC(CNC1CCCC1)Cn1c2ccccc2c2ccccc21 (stereo not drawn)

>  <property-label>
pEC50

>  <endpoint-result>
6.18

$$$$

# pEC50 of "O=C(Nc1cccc(C2=NCCN2)c1)Nc1cccc(C2=NCCN2)c1" = 6.00

Memo: "O=C1c2ccc3c4c(ccc(c24)C(=O)N1CCCCO)C(=O)N(CCCCO)C3=O" , reported pEC50: 6.10

For this molecule ( "CCOc1ccc2nc(C)cc(Nc3ccc(Br)cc3)c2c1" ), measured pEC50 is 6.32

For reference, reported pEC50 for CC(C)(C)CC(C)(C)NCC(O)COc1ccc(Cl)cc1Cl (stereo not drawn) stands at 5.94

Recorded pEC50 (molecule "CC(C)(C)c1ccc(O)c(CNC2CCCCC2)c1" ): 6.79

Summary for this molecule, "Cc1ccc(Nc2nc(N)c3ccccc3n2)cc1Cl" : pEC50 is 5.40

Summary for this molecule, COc1ccc(C2C(C(=O)Nc3cccc(OC)c3)c3ccccc3C(=O)N2C2CCCCC2)cc1 (stereo not drawn) : pEC50 is 5.93

The recorded pEC50 for "CCOC(=O)c1cn(CC)c2cc(N(C)CCc3ccc(OC)c(OC)c3)c(F)cc2c1=O" is 6.69

pEC50 recorded for this molecule, "CSc1ccccc1C(=O)Nc1nc(-c2ccccn2)cs1" , is 6.69

Reported pEC50 ( O=C(NCC(c1ccsc1)N1CCCCCC1)c1ccc(C(F)(F)F)cc1 (stereo not drawn) ) = 6.36

Field pEC50 (entry "O=C(Nc1nc(-c2ccccn2)cs1)c1ccccc1Br" ) reads 5.87

Just so you know, measured pEC50 for "COc1ccccc1N=C1C(=O)c2ccccc2C(O)=C1N1CCCCC1" came out at 8.28

Entry under test: "Cc1cc(NC(=O)c2ccc(-c3ccccc3)cc2)no1" . Its pEC50 was 6.16

Record summary for "COc1ccc(Nc2cc(C)nc(NCc3ccccc3)n2)cc1" : reported pEC50 = 6.33

CCOc1cc(Cl)c(C(C)NC(=O)c2ccccc2)cc1OCC (stereo not drawn) yielded pEC50 of 5.86

In plain terms, CCOc1cc(Br)c(C(C)NC(=O)c2cccc(OC)c2)cc1OCC (stereo not drawn) has a documented pEC50 of 5.84

According to the records, this molecule "COc1cc(C(=O)Nc2ccc(-c3nc4ccccc4[nH]3)cc2)cc(OC)c1OC" displays pEC50 of 5.91

Note to self: pEC50 recorded for "Cc1cc(Nc2ccc3ccccc3c2)n2ncnc2n1" was 6.62

// "CCOC(=O)c1cnc2c(C)cc(C)cc2c1Nc1ccc(OC)c(OC)c1" : pEC50 value = 6.63

Field pEC50 (entry "C=CCc1c(C)nc2ccccc2c1O" ) reads 5.89

pEC50 for "COc1cc(-c2nc(-c3ccccc3)c(-c3ccccc3)[nH]2)cc(OC)c1O" is 5.93

Value of pEC50 reported for the molecule "Cc1cc(C)c2c(c1)OCN(Cc1ccccc1Cl)C2" is 6.57

pEC50 measured on "CCCCNc1nc(NC(C)(C)C)nc(NC(C)(C)C)n1" = 6.15

---

- Tested on: P. falciparum 3D7
- measurement-description: DAPI stain fluorescent high content imaging assay, P. falciparum 3D7 (confirmatory screen, Avery)
- stated-conditions: Plasmodium falciparum, 3D7, read-out: percent_inh @ 5 uM
Catalogue of inhibition of growth at 5 µM values

Please review the following examples before continuing.
>  <compound>
CN(C)c1ccc(-c2nc3cc(N)ccc3[nH]2)cc1

>  <property-label>
inhibition of growth at 5 µM

>  <endpoint-result>
64%

$$$$
>  <compound>
CC(NCc1ccccc1)c1cc(Cl)ccc1O (stereo not shown)

>  <property-label>
inhibition of growth at 5 µM

>  <endpoint-result>
95%

$$$$
>  <compound>
CCOc1cc2c(cc1OCC)C(c1cc(C)c(O)c(C)c1)NCC2 (stereo not shown)

>  <property-label>
inhibition of growth at 5 µM

>  <endpoint-result>
97%

$$$$
>  <compound>
COc1ccc(C2=C(c3ccc(OC)cc3)C3(c4ccccc4)C(=O)C2(c2ccccc2)C2C(=O)N(c4ccc(C)cc4)C(=O)C23)cc1 (stereo not shown)

>  <property-label>
inhibition of growth at 5 µM

>  <endpoint-result>
98%

$$$$
>  <compound>
Clc1cc(Br)ccc1-c1ccc(CNCC2CCNCC2)o1

>  <property-label>
inhibition of growth at 5 µM

>  <endpoint-result>
96%

$$$$
>  <compound>
O=C(Cc1ccccc1)NC(c1ccc(Cl)cc1)c1c(O)ccc2ccccc12 (stereo not shown)

>  <property-label>
inhibition of growth at 5 µM

>  <endpoint-result>
97%

$$$$

Reading of inhibition of growth at 5 µM for "COc1cc(C(=O)Nc2ccc(-c3nc4ccccc4[nH]3)cc2)cc(OC)c1OC" with P. falciparum 3D7: 95%

Value (inhibition of growth at 5 µM, P. falciparum 3D7) for record COc1ccc(C(=O)C2CC2c2ccc(Cl)cc2)cc1 (stereo not shown) = 94%

inhibition of growth at 5 µM on P. falciparum 3D7 for "Cc1cc(C=C2SC(=Nc3ccccc3)N(C3CCCC3)C2=O)c(C)n1-c1ccc(Cl)cc1" is 97%

Lab note: compound COc1ccccc1N1CCN(C(CNS(=O)(=O)c2ccc(Cl)cc2)c2cccnc2)CC1 (stereo not shown) tested on P. falciparum 3D7; recorded inhibition of growth at 5 µM was 93%

Considering "COc1ccc(-c2nonc2NC(=O)c2cccc(C)c2)cc1OC" , its inhibition of growth at 5 µM with P. falciparum 3D7 was recorded as 95%

The compound C=C(C)CCC(C)N1CCC(N2CCC(C(=O)NCCc3ccccc3)CC2)CC1 (stereo not shown) , tested on P. falciparum 3D7, showed inhibition of growth at 5 µM of 96%

Here "O=C(Nc1ccc(CN2CCOCC2)cc1)c1ccc(-c2ccc(Br)cc2)o1" was tested on P. falciparum 3D7, and its inhibition of growth at 5 µM came to 96%

---

Below, each of the molecules is paired with its reported inhibition of growth at 5 µM value.
- Test system: P. falciparum 3D7
- measurement-description: DAPI stain fluorescent high content imaging assay, P. falciparum 3D7 (confirmatory screen, Avery)
- stated-conditions: Plasmodium falciparum, 3D7, read-out: percent_inh @ 5 uM
Note: unit % is implicit; provide only the numeric part.

>  <molecule>
OC(Cn1nnc2ccccc21)Cn1c2ccc(Br)cc2c2cc(Br)ccc21 (stereo not drawn) [MMV666025]

>  <units-of-measure>
%

>  <inhibition of growth at 5 µM>
98

$$$$
>  <molecule>
Cc1ccc(-c2cc(C(=O)Nc3ccc(S(=O)(=O)N4CCCCC4)cc3)[nH]n2)c(O)c1 [MMV665906]

>  <units-of-measure>
%

>  <inhibition of growth at 5 µM>
94

$$$$

Form: molecule = CCOC(=O)C1=C(C)N=c2sc(=Cc3ccccc3O)c(=O)n2C1c1ccc(OC)c2ccccc12 (stereo not drawn) [MMV666604] ; inhibition of growth at 5 µM = 97

Per the records, this molecule ( CCN(CC)CCCNc1ccnc2cc3ccccc3cc12 [MMV665783] ) has inhibition of growth at 5 µM equal to 90

Note to self: inhibition of growth at 5 µM recorded for COc1nc(Nc2ccc(C(C)C)cc2)nc(OC)n1 [MMV007808] was 88

What the record says about CCCCCCn1c(=N)n(CC(O)COc2cccc(C)c2)c2ccccc21 (stereo not drawn) [MMV000445] : inhibition of growth at 5 µM is 98
